- TARGET: Neuromedin-B receptor (Homo sapiens, UniProt P28336)
- Sequence (P28336 whole entry): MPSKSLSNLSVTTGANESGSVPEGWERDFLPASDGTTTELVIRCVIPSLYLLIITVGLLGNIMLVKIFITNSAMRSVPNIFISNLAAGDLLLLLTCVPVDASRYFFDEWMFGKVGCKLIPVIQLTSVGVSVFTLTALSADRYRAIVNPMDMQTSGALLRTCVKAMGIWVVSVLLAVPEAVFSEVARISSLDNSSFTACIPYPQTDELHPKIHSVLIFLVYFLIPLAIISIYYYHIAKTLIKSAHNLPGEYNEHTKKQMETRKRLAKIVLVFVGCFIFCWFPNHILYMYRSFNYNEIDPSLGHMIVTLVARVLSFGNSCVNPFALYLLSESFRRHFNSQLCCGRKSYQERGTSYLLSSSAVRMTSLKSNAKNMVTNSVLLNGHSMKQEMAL
- ASSAY_COMMENT: Displacement of [125I]-(D-Tyr0)NMB from human neuromedin B receptor transfected in HEK293 cells
# IC50 per record follows
EXPERIMENTAL_READOUT: IC50 (nM)

- COMPOUND: "Cc1ccc2c(c1)NC(c1c(F)cccc1Cl)C1C(=O)CCC1=N2 (configuration not stated)"
  TARGET: "Neuromedin-B receptor (Homo sapiens, UniProt P28336)"
  TEST_VALUE: 10000
- COMPOUND: "CC1(C)CC(=O)C2C(=Nc3ccc(OC(F)(F)F)cc3NC2c2c(F)cccc2Cl)C1 (configuration not stated)"
  TARGET: "Neuromedin-B receptor (Homo sapiens, UniProt P28336)"
  TEST_VALUE: 1300
- COMPOUND: "Cc1ccc2c(c1)NC(c1c(F)cccc1Cl)C1C(=O)CC3(CCCC3)CC1=N2 (configuration not stated)"
  TARGET: "Neuromedin-B receptor (Homo sapiens, UniProt P28336)"
  TEST_VALUE: 280
- COMPOUND: "Cc1ccc2c(c1)NC(c1ccccc1C(F)(F)F)C1C(=O)CC3(CCCC3)CC1=N2 (configuration not stated)"
  TARGET: "Neuromedin-B receptor (Homo sapiens, UniProt P28336)"
  TEST_VALUE: 96
- COMPOUND: "CSc1ccccc1C1Nc2cc(C)ccc2N=C2CC3(CCCC3)CC(=O)C21 (configuration not stated)"
  TARGET: "Neuromedin-B receptor (Homo sapiens, UniProt P28336)"
  TEST_VALUE: 250
- COMPOUND: "CC1(C)CC(=O)C2C(=Nc3ccc(C(=O)O)cc3NC2c2c(F)cccc2Cl)C1 (configuration not stated)"
  TARGET: "Neuromedin-B receptor (Homo sapiens, UniProt P28336)"
  TEST_VALUE: 10000
- COMPOUND: "Cc1ccc2c(c1)NC(c1ccccc1C(F)(F)F)C1C(=O)CC(C)(C)CC1=N2 (configuration not stated)"
  TARGET: "Neuromedin-B receptor (Homo sapiens, UniProt P28336)"
  TEST_VALUE: 250

Where do these numbers come from? They come from BindingDB's records for doi:10.1016/j.bmcl.2009.05.124.
